assay: Stability of compound; assay type: physicochemical
MEASUREMENT_TYPE: Stability

Examples from the recorded data:
{"columns": ["SMILES_ENTRY", "Stability"],
 "data": [
  ["O=C(/C=C/c1ccc2c(c1)OCO2)Nc1ccc(CCCCc2nnc(NC(=O)Cc3ccccn3)s2)nn1", "Stable"],
  ["O=C(/C=C/c1cc(F)ccc1F)Nc1ccc(CCCCc2nnc(NC(=O)Cc3ccccn3)[se]2)nn1", "Unstable"],
  ["C=CC(=O)Nc1ccc(CCCCc2nnc(NC(=O)Cc3ccccn3)s2)nn1", "Unstable"],
  ["O=C(/C=C/c1ccc2c(c1)OCO2)Nc1ccc(CCCCc2nnc(NC(=O)Cc3ccccn3)[se]2)nn1", "Stable"]
]}

Identify Stability associated with the compound "C=CC(=O)Nc1ccc(CCCCc2nnc(NC(=O)Cc3cc4ccccc4n3C)s2)nn1" Unstable

Identify Stability associated with the compound "C=C(C(=O)Nc1ccc(CCCCc2nnc(NC(=O)Cc3ccccn3)[se]2)nn1)c1cccc(OC(F)(F)F)c1" Unstable

Identify Stability associated with the compound "C=CC(=O)Nc1ccc(CCCCc2nnc(NC(=O)Cc3ccccn3)[se]2)nn1" Unstable
